Source: the supplement of paper PMC8975748

# System: Saccharomyces cerevisiae BY4741 SeMeCo community
# protocol notes: z-score of subpopulation abundance vs DMSO median, subpopulation auxotrophic for UM; higher = larger share of this subpopulation than in DMSO controls
# stated conditions: 10 µM; 24 h; SM minimal medium; subpopulation (auxotrophy): UM
Structures can show the parent of a compound that is named as a salt.
// map z-score of subpopulation abundance onto a label; ranges low (below -0.7), middle (-0.7 to below 0.05), high (0.05 or more)

Recorded results for 5 compounds are shown here.
CCOc1cc(N)c(Cl)cc1C(=O)NCC1CN(Cc2ccc(F)cc2)CCO1 (stereo not drawn) [Mosapride Citrate] ... high
COc1ccc(-c2nc3cc(C4=NNC(=O)CC4C)ccc3[nH]2)cc1 (stereo not drawn) [Pimobendan] ... middle
C[C@H]1COc2c(N3CCN(C)CC3)c(F)cc3c(=O)c(C(=O)O)cn1c23 [Levofloxacin] ... low
Cc1ccc(Sc2ccccc2N2CCNCC2)c(C)c1 ... low
CN(C)CCC=C1c2ccccc2CCc2ccccc21 [Amitriptyline HCl] ... low

Returns: class label. Input: COc1nc2ccc(Br)cc2cc1[C@@H](c1ccccc1)[C@@](O)(CCN(C)C)c1cccc2ccccc12 [Bedaquiline fumarate]
high

Looking at CCOC(=O)C1=C(COCCN)NC(C)=C(C(=O)OC)[C@@H]1c1ccccc1Cl [Levamlodipine] , which class would you pick?
low

Which z-score of subpopulation abundance band matches NCc1ccccc1CC(=O)N[C@@H]1C(=O)N2C(C(=O)O)=C(CSc3nnnn3CC(=O)O)CS[C@H]12 [Ceforanide] ?
middle

Dear colleague, I would appreciate it if you could identify the bin for C[C@]12CC[C@@H]3c4ccc(O)cc4CC[C@H]3[C@@H]1CCC2=O [Estrone] and reply at your convenience.
middle

GET /class?item= CN1[C@@H]2CC[C@H]1C[C@@H](OC(c1ccccc1)c1ccccc1)C2 [Benztropine mesylate]
middle

Into which bin does this compound go? O=C1CC2(CCCC2)CC(=O)N1CCCCN1CCN(c2ncccn2)CC1 [Buspirone HCl]
low

For COc1cc(NS(=O)(=O)c2ccc(N)cc2)ncn1 [Sulfamonomethoxine] , which z-score of subpopulation abundance bin applies?
high

Category lookup for the compound CN[C@H]1CC[C@@H](c2ccc(Cl)c(Cl)c2)c2ccccc21 [Sertraline HCl]
middle

* * *

# System: Saccharomyces cerevisiae BY4741 SeMeCo community
# protocol notes: z-score of subpopulation abundance vs DMSO median, subpopulation auxotrophic for U; higher = larger share of this subpopulation than in DMSO controls
# stated conditions: 10 µM; 24 h; SM minimal medium; subpopulation (auxotrophy): U
Counter-ions that a name gives are not always drawn.
Rule: label 1 for z-score of subpopulation abundance not less than 0.09, label 0 for anything less.

Some entries whose results are on file:
CC(=O)C1C(=O)C=C(C)OC1=O (stereo unspecified) [Sodium dehydroacetate] ... label 1
C[C@H]1c2cccc(O)c2C(O)=C2C(=O)[C@]3(O)C(O)=C(C(N)=O)C(=O)[C@@H](N(C)C)[C@@H]3[C@@H](O)[C@@H]21 [Doxycycline monohydrate] ... label 0

Quick check, z-score of subpopulation abundance >= 0.09? COc1cccc2c1C(=O)c1c(O)c3c(c(O)c1C2=O)C[C@@](O)(C(=O)CO)C[C@@H]3O[C@H]1C[C@H](N)[C@@H](O)[C@H](C)O1 [Epirubicin HCl]
label 1

# bool: z-score of subpopulation abundance of CC(C(O)c1ccc(O)cc1)N1CCC(Cc2ccccc2)CC1 (stereo unspecified) [Ifenprodil Tartrate] >= 0.09
label 1

Could you verify whether the entry "O=C(O)CCc1nc(-c2ccccc2)c(-c2ccccc2)o1" shows z-score of subpopulation abundance of no less than 0.09?
label 0
